Origin of the recorded values: the COVID Moonshot data (paper PMC7615835)

biological target: SARS-CoV-2 Main Protease (SARS-CoV-2)
pIC50: −log10 of the molar value.
The threshold is inclusive: pIC50 of exactly 6 counts as criterion met; values below receive criterion not met.

Solved entries (count: 3):
## Input Record COc1cc(COc2cc(Cl)cc(CC(=O)Nc3cnccc3C)c2)ccc1OC(F)F ; criterion: pIC50 no lower than 6. Met?
## Output criterion not met

## Input Now consider NC(=O)c1ccncc1NC(=O)Cc1cccc(Cl)c1 and answer again.
## Output criterion not met

## Input Query O=C(Cc1cc(Cl)cc(Nc2ccc(-c3ccccn3)cc2)c1)Nc1cncc2ccccc12 next
## Output criterion not met

In the following, a different compound is considered.
## Input Please tell me: is the compound COC(=O)[C@@H]1CC[C@H](NC(=O)C(c2cccnc2)N(C(=O)c2cocn2)c2ccc(C(C)(C)C)cc2)C1 (stereo in doubt) at or over 6 in terms of pIC50?
## Output criterion not met
